Ref: PubChem BioAssay AID1645865

TEST_TARGET: Ubiquitin carboxyl-terminal hydrolase 30 (Homo sapiens)
ASSAY_NAME: inhibitors of ubiquitin-specific protease 30 deubiquitylating enzyme, concentration dependence, in vitro biochemical, validation of primary hits (AID 1645865)
CONDITION_PARAMETERS: purified USP30, Ub-rhodamine cleavage, fluorescence, 2 h
Active and inactive are the calls of the source.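 How the source made its calls: active means maximal inhibition of the USP30 enzyme reaching 30% or more across the dose series; inactive means the rest.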
The reply should be one of these categories: yes = active, no = inactive

Below are worked cases with known answers.
CCCn1cc(C(=O)N2CCC3(CC2)CC2(CO3)Nc3ccccc3-n3cccc32)c(C)n1 (stereo not given): no
COc1ccccc1-c1ccc(CN2[C@@H](c3ccccc3)C[C@@H]3NC(=O)CCC[C@H]32)cc1: no
Cc1ccccc1NC(=O)Cn1cc(-c2nc(C3CC3)no2)ccc1=O: no
Cc1ccccc1NC(=O)c1cc(S(=O)(=O)N2CCCCCC2)ccc1Cl: yes
O=C(COC(=O)c1ccc(Cl)cc1)Nc1ccc2[nH]c(=O)[nH]c2c1: yes

What call does the record list for Cc1cc(/C=C2/C(=N)N3C(c4ccccc4)=CSC3=NC2=O)c(C)n1-c1ccc(F)cc1 ?
no

What call does the record list for O=C(C1CCCN(S(=O)(=O)N2CCCCCC2)C1)N1CCN(c2ccccc2)CC1 (stereo not given) ?
no

What call does the record list for CC(=O)Nc1ccc(O)c(-c2nc3cc(C)ccc3o2)c1 ?
yes

What call does the record list for COc1cc(N)c(Cl)cc1C(=O)OCC(=O)c1ccc2c(c1)OCCO2 ?
no

What call does the record list for Cc1nc(Nc2c3ccccc3nc3ccccc23)sc1C ?
no
